Tested on: HOP-92
Experimental details: NCI tumour cell line growth inhibition, 48 h
The source made the active and inactive calls. Cut-off read from the data, not from the text of the source: active = GI50 up to about 1.1 µM and inactive = higher.
// classify into 1.0 = active, 0.0 = inactive

[
  {
    "Molecule": "COc1ccc2c(c1)CCc1c(C(C)=O)c3ccccc3n1C2",
    "System under test": "HOP-92",
    "Class assignment": 0.0
  },
  {
    "Molecule": "Cc1cn(C2CC(O)C(COC(=O)c3ccccc3)O2)c(=O)[nH]c1=O (stereo unspecified)",
    "System under test": "HOP-92",
    "Class assignment": 0.0
  },
  {
    "Molecule": "O=c1ccc2cc(O)c(O)cc2o1",
    "System under test": "HOP-92",
    "Class assignment": 0.0
  },
  {
    "Molecule": "COc1ccc(OC)c2sc(N3C(=O)/C(=C/c4ccc(Cl)cc4)N=C3c3ccccc3)nc12",
    "System under test": "HOP-92",
    "Class assignment": 0.0
  },
  {
    "Molecule": "C/C=C1\\CC2C(=O)CCC2C2c3ccccc3OC12 (stereo unspecified)",
    "System under test": "HOP-92",
    "Class assignment": 0.0
  },
  {
    "Molecule": "COC(=O)c1ccc(C)cc1C1CN=NC12Cc1c(C)cccc1C2=O (stereo unspecified)",
    "System under test": "HOP-92",
    "Class assignment": 0.0
  }
]

Called result for OC1OC2COC(c3ccccc3)OC2C(O)C1O (stereo unspecified)
0.0

Called result for "O=S(=O)(NNc1ccccc1)c1ccccc1"
0.0

Called result for "O=c1[nH]n(Cc2ccccn2)c2ccc([N+](=O)[O-])cc12"
0.0

Called result for "O=C(/C=C\c1ccc([N+](=O)[O-])cc1)c1ccccc(=O)c1O"
1.0

Called result for "O=c1[nH]nc(-c2ccccc2)n1/N=C/c1c(O)ccc2ccccc12"
0.0

---

Tested on: PC-3
Experimental details: NCI tumour cell line growth inhibition, 48 h
The source made the active and inactive calls. Rule as the data show it: active = GI50 up to about 1.1 µM and inactive = higher.
Some molecules, each annotated with its measured GI50.

[
  {
    "Molecule": "C/C=C(\\C)c1cc(=O)c2c(C)cc3c(c2o1)C(=O)c1c(O)c(C2CC(C)(N(C)C)C(O)C(C)O2)cc(C2CC(N(C)C)C(O)C(C)O2)c1C3=O (stereo not given)",
    "GI50": "0.229 µM (active)"
  },
  {
    "Molecule": "COc1cccc(-n2nnc3c(N)nc(N)nc32)c1",
    "GI50": "> 100 µM (inactive)"
  },
  {
    "Molecule": "c1ccc(C2=Nn3c(CCCCCCCCc4nnc5n4N=C(c4ccccc4)CS5)nnc3SC2)cc1",
    "GI50": "> 100 µM (inactive)"
  }
]

I am curious: what GI50 value has been reported for "CC[C@H]1C=CCC[C@@]2(C[C@@H]3CC[C@@H]4[C@H](C(=O)OCCCCCCCCCCCCCCCC(=O)N(CCCNC(C)=O)C[C@H](CCNC(C)=O)OC(C)=O)[C@]5(CCC[C@@H](C)O5)NC(=[N+]34)N2)O1" ?
0.0349 µM (active)

---

Tested on: U-251
Experimental details: NCI tumour cell line growth inhibition, 48 h
Calls of active or inactive are those of the source. Cut-off read from the data, not from the text of the source: active = GI50 up to about 1.1 µM and inactive = higher.
Some compounds, each annotated with its measured GI50.

Example results:
[
  {
    "Compound": "C1CC[C@H]2SSC3CCCC[C@H]3SSC2C1 (stereo partly specified)",
    "GI50": "> 100 µM (inactive)"
  },
  {
    "Compound": "CC1(C)C2CCC1(CS(=O)(=O)Nc1ccccc1)C(=O)C2 (stereo unspecified)",
    "GI50": "> 100 µM (inactive)"
  },
  {
    "Compound": "Cc1cc(N(CCC#N)CCC#N)ccc1/N=N/c1cccc(C(=O)O)c1",
    "GI50": "> 100 µM (inactive)"
  },
  {
    "Compound": "COc1cc(C(O)CCBr)c(OC)cc1C (stereo unspecified)",
    "GI50": "33.2 µM (inactive)"
  },
  {
    "Compound": "COc1ccccc1C1c2cc3c(cc2OC2(OC)COC(=O)C12)OCO3 (stereo unspecified)",
    "GI50": "14.2 µM (inactive)"
  }
]

Consider the record given below.
I am curious: what GI50 value has been reported for CC(C)(C)OC(=O)NC1CCCC1C(O)(C1=CCCC1)C1=CCCC1 (stereo unspecified) ?
> 100 µM (inactive)
